B1: CROP (parent)
chain: VFGRGDNISDVSKFLEDDKWMEE

- Variants of: B1
- experiment-summary: protein stability index of a GFP-peptide fusion (GPS, HEK-293T) (PSI 1-6); higher = more stable;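 note: lentivirally expressed fusions sorted by FACS into six bins by GFP to DsRed ratio, PSI derived from sequencing read proportions per bin multiplied by bin number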
- test-context: c terminus: native
attribute-measured: protein stability index
Lab note: record the figure alone, no unit after it.

Input: Consider the variant shown here: VFGRGDNISDVSKFLEIDKWMEE What is its recorded protein stability index?
Output: 3.52

Input: Consider the variant shown here: VFGRGDNISDVSKFAEDDKWMEE What is its recorded protein stability index?
Output: 3.09

Input: Consider the variant shown here: VFGRGDNISDVSKFLEDDKWGEE What is its recorded protein stability index?
Output: 4.04

Input: Consider the variant shown here: VFGRGDNISDVSKFLEDDKWMER What is its recorded protein stability index?
Output: 4.6

Input: Consider the variant shown here: VFHRGDNISDVSKFLEDDKWMEE What is its recorded protein stability index?
Output: 1.88

Input: Consider the variant shown here: VFGPGDNISDVSKFLEDDKWMEE What is its recorded protein stability index?
Output: 1.51

Input: Consider the variant shown here: VFGRGDNIDDVSKFLEDDKWMEE What is its recorded protein stability index?
Output: 2.12

Input: Consider the variant shown here: VFTRGDNISDVSKFLEDDKWMEE What is its recorded protein stability index?
Output: 2.07

Input: Consider the variant shown here: VFGRGDNISDVSKFLEDDKWMSE What is its recorded protein stability index?
Output: 4.51

Input: Consider the variant shown here: VFGRGDNISVVSKFLEDDKWMEE What is its recorded protein stability index?
Output: 2.63

Further cases:
Input: Consider the variant shown here: VFWRGDNISDVSKFLEDDKWMEE What is its recorded protein stability index?
Output: 2.36

Input: Consider the variant shown here: VFGRGDNISDVSKFGEDDKWMEE What is its recorded protein stability index?
Output: 2.8

Input: Consider the variant shown here: VFGRNDNISDVSKFLEDDKWMEE What is its recorded protein stability index?
Output: 3.26

Input: Consider the variant shown here: RFGRGDNISDVSKFLEDDKWMEE What is its recorded protein stability index?
Output: 2.37

Input: Consider the variant shown here: VFGRGDNISDVSKFLLDDKWMEE What is its recorded protein stability index?
Output: 2.72

Input: Consider the variant shown here: VFGRGDNISDVSKFLEDDIWMEE What is its recorded protein stability index?
Output: 2.28

Input: Consider the variant shown here: VFGRGDNISDMSKFLEDDKWMEE What is its recorded protein stability index?
Output: 2.95

Input: Consider the variant shown here: VFGRGDNISDVSKVLEDDKWMEE What is its recorded protein stability index?
Output: 3.01

Input: Consider the variant shown here: VFGRGDNISDVSIFLEDDKWMEE What is its recorded protein stability index?
Output: 2.69

Input: Consider the variant shown here: VFGRGDNISDVSKFLEDDKWVEE What is its recorded protein stability index?
Output: 1.87

Input: Consider the variant shown here: VFGFGDNISDVSKFLEDDKWMEE What is its recorded protein stability index?
Output: 2.19

Input: Consider the variant shown here: VFGRGDHISDVSKFLEDDKWMEE What is its recorded protein stability index?
Output: 2.12
